The measurements presented in this section are drawn from ChEMBL document CHEMBL4052597.

test system: Lipid bilayer; assay: Induction of membrane damage in DOPE/DOPG large unilamellar vesicles assessed as calcein leakage at compound to lipid ratio of 1:16 after 1 hr by fluorescence assay relative to control
Would you kindly list Activity for each of these compounds?
Record the value in %, omitting the unit from your answer.

Ask: Entry under review: COC(=O)[C@H](CCCNC(=N)N)NC(=O)[C@H](CCCNC(=N)N)NC(=O)COc1cc(OCC=C(C)C)cc2oc3cc(OCC=C(C)C)cc(OCC(=O)N[C@@H](CCCNC(=N)N)C(=O)N[C@@H](CCCNC(=N)N)C(=O)OC)c3c(=O)c12 . Reported Activity?
Result: 63.3

Ask: // returns reported Activity for input O=c1c2c(O)cc(O)cc2oc2cc(O)cc(O)c12
Result: 11.7

Ask: Look at this compound and give its reported Activity. COC(=O)[C@H](CCCCN)NC(=O)COc1cc(OCC=C(C)C)cc2oc3cc(OCC=C(C)C)cc(OCC(=O)N[C@@H](CCCCN)C(=O)OC)c3c(=O)c12
Result: 48.2

Ask: Please give the measured Activity for this compound: COC(=O)[C@H](CCCNC(=N)N)NC(=O)COc1cc(OCC=C(C)C)cc2oc3cc(OCC=C(C)C)cc(OCC(=O)N[C@@H](CCCNC(=N)N)C(=O)OC)c3c(=O)c12
Result: 58.7
